Target: Gal(b1-4)GlcNAc(b1-2)Man(a1-3)Man(b1-4)GlcNAc(b1-4)GlcNAc
Test: glycan array binding signal (z-score within array); higher = stronger binding
Conditions: glycan notation: IUPAC condensed, linker removed
Only a selection was taken, and the strongest signals are over-represented in it overall.
parameter_measured: glycan array binding signal (z-score)

[[record]]
binder = "EEA (Euonymus europaeus) (protein) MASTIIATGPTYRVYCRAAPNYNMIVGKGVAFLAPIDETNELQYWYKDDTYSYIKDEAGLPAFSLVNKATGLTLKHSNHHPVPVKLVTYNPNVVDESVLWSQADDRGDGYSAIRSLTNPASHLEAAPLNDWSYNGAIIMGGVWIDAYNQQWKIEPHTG"
measured_value = -0.282


Next, consider the following binder.
Ask | Requested field: glycan array binding signal (z-score). Item: Gal 1 (Canis lupus) (protein) MACGLVASNLSLKPGQCLRVQCEVVPEAKSFVLNLGKDGDNLCLHFNPRFEAHGDVNTIVCNSKDGGAWGEELRESAFPFQPGTVTEVCISFDQADLTIKLPDGYTFKFPNRLNLEAISYLAADGDMKIKCLAFD
Reply | 1.75
